# System: Saccharomyces cerevisiae
# Test: Inhibition of Saccharomyces cerevisiae hexokinase
Active and inactive are the calls of the source. No cut-off for these calls is given here.
Readout type: inhibition

compound="N#CC1=C(SCc2ccccc2)SC(c2ccccc2O)NC1=O (stereo unspecified)" readout_type=inhibition value_reported=Active
compound=CC1=NOC(=O)/C1=C\c1ccc(-c2ccccc2)o1 readout_type=inhibition value_reported=Active
compound="CC1(c2ccccc2)CC(C)(C)N2C(=O)/C(=C3/SC(=O)NC3=O)c3cccc1c32 (stereo unspecified)" readout_type=inhibition value_reported=Active
compound=O=C1OC2(CCCC2)OC(=O)C1=Cc1ccc(OCc2ccccc2)cc1 readout_type=inhibition value_reported=Active
compound="O=C1OC(c2ccccc2)OC(=O)C1=C/C=C/c1ccccc1 (stereo unspecified)" readout_type=inhibition value_reported=Active
compound=c1ccc(-c2cnc3nonc3n2)cc1 readout_type=inhibition value_reported=Active
compound=CC1=NN(c2cccc(C(=O)O)c2)C(=O)/C1=C/c1ccc(-c2cccc(Cl)c2C)o1 readout_type=inhibition value_reported=Active
compound=O=C(NC1(O)C(=O)c2ccccc2C1=O)c1cnn(-c2ccccc2)c1C(F)(F)F readout_type=inhibition value_reported=Active

Each of the following entries comes with a recorded value; kindly state inhibition for each.
1. Cc1cccc(OCCOc2ccc(Br)cc2/C=C2\SC(=S)NC2=O)c1
2. Cc1ccc(CSc2nc(C(=O)O)ccc2C#N)cc1
3. COc1cc(/C=C2/SC(=S)NC2=O)ccc1OC(=O)c1cccc(C)c1

1: Active; 2: Active; 3: Active
